target: NS1 RBD H5N1 (Influenza A virus (H5N1; allele A)); assay: competition EMSA
recordedMetric: pIC50
Friendly reminder that pIC50 comes from taking -log10 of the concentration in mol/L.

The following sequences have reported results that may help.
AGACAGCAUUAUGCUGUCUUU / AGACAGCAUUAUGCUGUCUUU [ZKO]; 7.05
GGUAACUGUAGAGGUUACAGAGAUGUAACCUCUACAGUUACC [shDM02-GAGA]; 9.39

Alright, here's another sequence for you.
QUERY: Name the reported pIC50 value associated with the sequence GGUAACCACAUGAGUUACAGCAAAAGACCUGUGUAACUCAUGCUGUUACC [DM01-midi]
RESULT: 8.66

Values compiled from paper PMC7552008.
